Tested on: MCF7
EXPERIMENTAL_PROTOCOL: Cytotoxicity against human MCF7 cells assessed as cell growth inhibition at 50 uM after 48 hrs by SRB assay relative to control
Assay type: functional
CONDITION: MCF7, 48 h, read-out: GI

{"columns": ["COMPOUND", "MEASUREMENT_TARGET", "UNIT_TAG", "inhibition of growth at 50 µM"],
 "data": [
  ["CN1c2c(ccc3cc4c(cc23)OCO4)-c2ccc3c(c2C1C[N+](=O)[O-])OCO3 (centres undefined)", "MCF7", "%", 100],
  ["CN1c2c(ccc3ccccc23)-c2ccccc2C1C#Cc1ccccc1 (centres undefined)", "MCF7", "%", 100],
  ["COc1ccc2c(c1OC)C(C(C)[N+](=O)[O-])N(C)c1c-2ccc2cc3c(cc12)OCO3 (centres undefined)", "MCF7", "%", 100],
  ["CN1c2c(ccc3ccccc23)-c2ccccc2C1c1c[nH]c2ccccc12 (centres undefined)", "MCF7", "%", 10.1],
  ["CCCCOP(=O)(OCCCC)C1c2c(ccc3c2OCO3)-c2ccc3cc4c(cc3c2N1C)OCO4 (centres undefined)", "MCF7", "%", 100],
  ["CCOC(=O)C(C(=O)OCC)C1c2c(ccc3c2OCO3)-c2ccc3cc4c(cc3c2N1C)OCO4 (centres undefined)", "MCF7", "%", 100],
  ["CCOP(=O)(OCC)C1c2c(ccc3c2OCO3)-c2ccc3cc4c(cc3c2N1C)OCO4 (centres undefined)", "MCF7", "%", 100],
  ["COC(=O)C(C(=O)OC)C1c2ccccc2-c2ccc3ccccc3c2N1C (centres undefined)", "MCF7", "%", 95.6],
  ["COc1ccc2c(c1OC)C(c1c(C)[nH]c3ccccc13)N(C)c1c-2ccc2cc3c(cc12)OCO3 (centres undefined)", "MCF7", "%", 100]
]}
